Data origin, for the record: patent US12441725B2

# IC50 listing for each entry below
Assayed system: IDH1 R132C (Homo sapiens, UniProt O75874, R132C)
Construct: 6xHis
Sequence (O75874 whole entry R132C): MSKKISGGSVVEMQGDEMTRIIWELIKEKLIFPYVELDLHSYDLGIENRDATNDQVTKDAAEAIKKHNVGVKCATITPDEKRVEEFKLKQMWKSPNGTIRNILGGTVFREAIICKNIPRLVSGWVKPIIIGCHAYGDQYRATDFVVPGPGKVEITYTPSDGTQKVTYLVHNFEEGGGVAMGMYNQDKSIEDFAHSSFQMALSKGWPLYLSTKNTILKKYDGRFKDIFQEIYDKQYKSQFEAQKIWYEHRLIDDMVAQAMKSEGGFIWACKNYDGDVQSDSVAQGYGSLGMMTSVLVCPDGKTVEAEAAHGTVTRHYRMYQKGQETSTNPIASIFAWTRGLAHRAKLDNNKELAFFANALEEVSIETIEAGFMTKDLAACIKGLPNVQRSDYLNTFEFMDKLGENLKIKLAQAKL
Test description: Biochemical assay for IDH inhibition (NADPH fluorescence), mutant IDH1 R132C
Assay setup: 25 nM IDH1-R132C, 1 hour pre-incubation, in triplet

| Compound | IC50 |
| --- | --- |
| CCN1Cc2c(ccnc2N[C@@H](C)c2cc(F)c(-c3cc(C(C)(C)F)c(OC)nn3)cc2F)C1=O | < 100 nM |
| CCN1Cc2c(ccnc2N[C@@H](C)c2ccc(Cc3ccc(F)c(C)c3)c(F)c2)C1=O | 100 to 500 nM |
| CCN1Cc2c(ccnc2N[C@@H](C)c2ccc(C(=O)c3ccccc3)c(F)c2)C1=O | > 1000 nM |
| CCN1Cc2c(ccnc2N[C@@H](C)c2ccc(C(=O)NC3CCCCC3)c(Cl)c2)C1=O | > 1000 nM |
| CCN1Cc2c(ccnc2N[C@@H](C)c2ccc(-c3ccnc(C(C)(C)C#N)c3)c(F)c2)C1=O | > 1000 nM |
| CCN1Cc2c(ccnc2N[C@@H](C)c2cc(F)c(-c3cc(C4(C(F)(F)F)CC=NN4)ccn3)cc2F)C1=O (stereo partly drawn) | 100 to 500 nM |
| CCN1Cc2c(ccnc2N[C@@H](C)c2cc(F)c(-c3ccc(OC)c(C(C)(C)C)n3)cc2F)C1=O | 100 to 500 nM |
| CCN1Cc2c(ccnc2N[C@@H](C)c2cc(F)c(-c3cc(C(C)(C)F)cc(CF)n3)cc2F)C1=O | < 100 nM |
| CCN1Cc2c(ccnc2N[C@@H](C)c2cc(F)c(-c3ccnc(C(C)(F)F)c3)cc2F)C1=O | 100 to 500 nM |
| CCN1Cc2c(ccnc2N[C@@H](C)c2ccc(CN3CCC(F)(F)CC3)c(F)c2)C1=O | > 1000 nM |
| CCN1Cc2c(ccnc2N[C@@H](C)c2ccc(-c3ccnc4ccccc34)c(F)c2)C1=O | > 1000 nM |
| CCN1Cc2c(ccnc2N[C@@H](C)c2cc(F)c(-c3ccnc(C(C)(C)C)c3)c(F)c2)C1=O | < 100 nM |
| CCN1Cc2c(ccnc2N[C@@H](C)c2ccc(Oc3ccnc(C(C)(C)C)c3)c(F)c2)C1=O | 100 to 500 nM |
| CCN1Cc2c(ccnc2N[C@@H](C)c2cc(F)c(-c3ccnc(C(F)(F)C(F)(F)F)c3)cc2F)C1=O | < 100 nM |
| CCN1Cc2c(ccnc2N[C@@H](C)c2cc(F)c(-c3cc(C(F)(F)F)cc(Cl)n3)cc2F)C1=O | 100 to 500 nM |

----------
Assayed system: IDH1 R132H (Homo sapiens, UniProt O75874, R132H)
Construct: 6xHis
Sequence (O75874 whole entry R132H): as the sequence (O75874 whole entry R132C) above, with C132H counted along it
Test description: Biochemical assay for IDH inhibition (NADPH fluorescence), mutant IDH1 R132H
Assay setup: 50 nM IDH1-R132H, 1 hour pre-incubation, in triplet
Excerpt: The present disclosure provides a biochemical assay method for detecting the IDH inhibition and selectivity of the compounds by detecting IDH enzyme activity directly. Wild-type IDH enzymes convert NADP^+ to NADPH when catalyzing the α-KG producing reaction. […] So, the activity of wild-type and mutant IDH1/2 could be measured by monitoring NADPH level change as NADPH is fluorescent (Excitation 340 nm, Emission 460 nm). […]
pIC50: −log10 of the molar value.
# pIC50 listing for each entry below
Property label: pIC50

| Compound | Assayed system | Reported value |
| --- | --- | --- |
| CCN1Cc2c(ccnc2N[C@@H](C)c2cc(F)c(-c3cc(C(C)(C)F)c(C#N)cn3)cc2F)C1=O [Compound 163] | IDH1 R132H (Homo sapiens, UniProt O75874, R132H) | > 7.00 |
| CCN1Cc2c(ccnc2N[C@@H](C)c2ccc(C(=O)c3ccccc3)c(F)c2)C1=O [Compound 60] | IDH1 R132H (Homo sapiens, UniProt O75874, R132H) | < 6.00 |
| CCN1Cc2c(ccnc2N[C@@H](C)c2cc(F)c(-c3cc(C(C)(C)C)ncc3OC)cc2F)C1=O [Compound 116] | IDH1 R132H (Homo sapiens, UniProt O75874, R132H) | > 7.00 |
| C[C@H](Nc1nccc2c1CN(CCO)C2=O)c1cc(F)c(-c2ccnc(C(C)(C)C)c2)cc1F [Compound 159] | IDH1 R132H (Homo sapiens, UniProt O75874, R132H) | 6.30 to 7.00 |
| C[C@H](Nc1nccc2c1CN(CC(F)CF)C2=O)c1ccc(-c2ccnc(C(C)(C)C)c2)c(F)c1 (stereo partly shown) [Compound 39] | IDH1 R132H (Homo sapiens, UniProt O75874, R132H) | 6.30 to 7.00 |
| CCN1Cc2c(ccnc2N[C@@H](C)c2cc(F)c(-c3ccnc(C(C)(F)F)c3)cc2F)C1=O [Compound 106] | IDH1 R132H (Homo sapiens, UniProt O75874, R132H) | 6.30 to 7.00 |
| CCN1Cc2c(ccnc2N[C@@H](C)c2ncc(-c3ccccc3)cn2)C1=O [Compound 47] | IDH1 R132H (Homo sapiens, UniProt O75874, R132H) | < 6.00 |
| CCN1Cc2c(ccnc2N[C@@H](C)c2cc(F)c(-c3cncc(C(C)(C)C)c3)cc2F)C1=O [Compound 109] | IDH1 R132H (Homo sapiens, UniProt O75874, R132H) | > 7.00 |
| CCN1Cc2c(ccnc2N[C@@H](C)c2ccc(OC3Cc4ccccc4C3)c(F)c2)C1=O [Compound 5] | IDH1 R132H (Homo sapiens, UniProt O75874, R132H) | 6.00 to 6.30 |
| CCN1Cc2c(ccnc2N[C@@H](C)c2ccc(Oc3ccc4c(c3)cc(C)n4C)c(F)c2)C1=O [Compound 11] | IDH1 R132H (Homo sapiens, UniProt O75874, R132H) | 6.30 to 7.00 |
| CCN1Cc2c(ccnc2N[C@@H](C)c2cc(F)c(-c3cc(C(C)(C)F)ncc3CF)cc2F)C1=O [Compound 139] | IDH1 R132H (Homo sapiens, UniProt O75874, R132H) | > 7.00 |
| CCN1Cc2c(ccnc2N[C@@H](C)c2ccc(-c3ccc(C(F)(F)F)nc3)c(F)c2)C1=O [Compound 75] | IDH1 R132H (Homo sapiens, UniProt O75874, R132H) | < 6.00 |
| CCN1Cc2c(ccnc2N[C@@H](C)c2cc(F)c(-c3cc(C(C)(C)F)c(OC)cn3)cc2F)C1=O [Compound 135] | IDH1 R132H (Homo sapiens, UniProt O75874, R132H) | > 7.00 |
| CCN1Cc2c(ccnc2N[C@@H](C)c2ccc(-c3ccnc4ccccc34)c(F)c2)C1=O [Compound 70] | IDH1 R132H (Homo sapiens, UniProt O75874, R132H) | < 6.00 |
| CCN1Cc2c(ccnc2N[C@@H](C)c2ccc(-c3ccccc3)c(F)c2)C1=O [Compound 80] | IDH1 R132H (Homo sapiens, UniProt O75874, R132H) | < 6.00 |
| CCN1Cc2c(ccnc2N[C@@H](C)c2ncc(Cc3ccc(F)c(C)c3)cn2)C1=O [Compound 54] | IDH1 R132H (Homo sapiens, UniProt O75874, R132H) | < 6.00 |

----------
Assayed system: IDH1 R132H (Homo sapiens, UniProt O75874, R132H)
Construct: 6xHis
Test description: Biochemical assay for IDH inhibition (NADPH fluorescence), mutant IDH1 R132H
Assay setup: 50 nM IDH1-R132H, 1 hour pre-incubation, in triplet
Property label: IC50

| Compound structure | Assayed system | Reported value |
| --- | --- | --- |
| CCN1Cc2c(ccnc2N[C@@H](C)c2cc(F)c(-c3cc(C(F)(F)F)c(OC)cn3)cc2F)C1=O | IDH1 R132H (Homo sapiens, UniProt O75874, R132H) | < 100 nM |
| CCN1Cc2c(ccnc2N[C@@H](C)c2ccc(CN3CCC(F)(F)CC3)c(F)c2)C1=O | IDH1 R132H (Homo sapiens, UniProt O75874, R132H) | > 1000 nM |
| CCN1Cc2c(ccnc2N[C@@H](C)c2cc(F)c(-c3cc(C(C)(C)F)cc(C)n3)cc2F)C1=O | IDH1 R132H (Homo sapiens, UniProt O75874, R132H) | < 100 nM |
| CCN1Cc2c(ccnc2N[C@@H](C)c2cc(F)c(-c3cc(C(C)(C)F)c(F)cn3)cc2F)C1=O | IDH1 R132H (Homo sapiens, UniProt O75874, R132H) | < 100 nM |
| CCN1Cc2c(ccnc2N[C@@H](C)c2cc(C(C)(C)C)ncc2F)C1=O | IDH1 R132H (Homo sapiens, UniProt O75874, R132H) | > 1000 nM |
| CCN1Cc2c(ccnc2N[C@@H](C)c2cc(F)c(-c3ccnc(C(C)(C)C)c3)cc2F)C1=O | IDH1 R132H (Homo sapiens, UniProt O75874, R132H) | < 100 nM |
| CCN1Cc2c(ccnc2N[C@@H](C)c2ccc(-c3ccnc(C(=O)C4CC4)c3)c(F)c2)C1=O | IDH1 R132H (Homo sapiens, UniProt O75874, R132H) | > 1000 nM |
| CCN1Cc2c(ccnc2N[C@@H](C)c2ccc(-c3ccc4c(ccn4C)c3)c(F)c2)C1=O | IDH1 R132H (Homo sapiens, UniProt O75874, R132H) | 100 to 500 nM |
| CCN1Cc2c(ccnc2N[C@@H](C)c2cc(F)c(-c3cc(C(C)(C)F)c(OC)nn3)cc2F)C1=O | IDH1 R132H (Homo sapiens, UniProt O75874, R132H) | < 100 nM |
| CCN1Cc2c(ccnc2N[C@@H](C)c2ccc(Oc3ccnc4ccccc34)c(F)c2)C1=O | IDH1 R132H (Homo sapiens, UniProt O75874, R132H) | 500 to 1000 nM |
| CCN1Cc2c(ccnc2N[C@H](C)c2ccc(Oc3ccccc3)c(F)c2)C1=O | IDH1 R132H (Homo sapiens, UniProt O75874, R132H) | > 1000 nM |
| CCN1Cc2c(ccnc2N[C@@H](C)c2ccc(-c3ccn(C)n3)c(F)c2)C1=O | IDH1 R132H (Homo sapiens, UniProt O75874, R132H) | > 1000 nM |
| CCN1Cc2c(ccnc2N[C@H](C)c2cn(-c3ccc(Cl)cc3)cn2)C1=O | IDH1 R132H (Homo sapiens, UniProt O75874, R132H) | > 1000 nM |
| CCN1Cc2c(ccnc2N[C@@H](C)c2ccc(Oc3cccc4c3ccn4C)c(F)c2)C1=O | IDH1 R132H (Homo sapiens, UniProt O75874, R132H) | 100 to 500 nM |
| CCN1Cc2c(N[C@@H](C)c3cn(-c4ccc(F)cc4)cn3)ncc(F)c2C1=O | IDH1 R132H (Homo sapiens, UniProt O75874, R132H) | > 1000 nM |
| CCN1Cc2c(ccnc2N[C@@H](C)c2cc(F)c(-c3cn(C(C)(C)C)cn3)cc2F)C1=O | IDH1 R132H (Homo sapiens, UniProt O75874, R132H) | 100 to 500 nM |
